All figures here come from patent US20090035322A1.

Target: T1, human CD20 (human, UniProt P11836 1-297)
T1 sequence: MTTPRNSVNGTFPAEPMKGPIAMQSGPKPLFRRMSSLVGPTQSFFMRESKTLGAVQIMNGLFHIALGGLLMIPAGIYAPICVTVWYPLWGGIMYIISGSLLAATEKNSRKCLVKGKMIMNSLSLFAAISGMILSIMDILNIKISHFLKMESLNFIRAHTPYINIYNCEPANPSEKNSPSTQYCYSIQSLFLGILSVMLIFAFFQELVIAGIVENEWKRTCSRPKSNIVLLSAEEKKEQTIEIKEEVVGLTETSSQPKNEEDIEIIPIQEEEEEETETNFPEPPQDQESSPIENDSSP
Test: cell-based or functional assay
Assay Metric: % Cytotoxicity (CDC, Daudi), 0 hour (%)

Binder	Assay Metric	Value Observed
2B7-7 (antibody, V domains shown, Fully human IgG, constant region not specified; also called 2B7-7N) VH: EVQLVESGGGLVQPGRSLRLSCAASGFTFRDYTMHWVRQGPGKGLEWVSGISWNSDYIGYADSVKGRFTISRDNAKNSLYLQMNSLRVEDTALYYCAKLSGTYRDYFYGVDVWGQGTTVTVSS VL: EIVLTQSPATLSLSPGERAALSCRASQSVSNYLAWYQQKPGQAPRLLIYDASNRATGIPARFSGSGSGTDFTLTISSLEPEDFAVYYCQQRSNWPLTFGGGTKVEIR	% Cytotoxicity (CDC, Daudi), 0 hour	99.4
8G6-5 (antibody, V domains shown, Fully human IgG, constant region not specified; also called 8G6-5N) VH: EVQLAESGGDLVQSGRSLRLSCAASGITFHDYAMHWVRQPPGKGLEWVSGISWNSDYIGYADSVKGRFTISRDNAKKSLYLQMNSLRPDDTALYYCVKDFHYGSGSNYGMDVWGQGTTVTVSP VL: EIVMTQSPATLSMSPGERATLSCRASQSVSRNLAWYQQKVGQAPRLLISGASTRATGIPARFSGSGSGTEFTLTINSLQSEDFAVYYCQQSNDWPLTFGQGTRLEIK	% Cytotoxicity (CDC, Daudi), 0 hour	99.6
10F2-13 (antibody, V domains shown, Fully human IgG, constant region not specified; also called 10F2-13N; ab 10F2-13) VH: EEQLVESGGDLVQPGRSLRLSCAASGFTFHDYTMHWVRQAPGKGLEWVSGISWNSGSLGYADSVKGRFTISRDNAKKSLYLQMNSLRAEDTALYYCAKDPSYGSGSYHSYYGMDVWGQGTTVTVSS VL: EIVLTQSPATLSLSPGERATLSCWASQSISRYLVWYQQKCGQAPRLLIYEASKRATGIPVRFSGSGSGTDFTLTISSLESEDFAVYYCQQRFNWPLTFGGGTKVEIK	% Cytotoxicity (CDC, Daudi), 0 hour	99.6
9C11-14 (antibody, V domains shown, Fully human IgG, constant region not specified; also called 9C11-14N) VH: QVQLVESGGDSVKPGGSLRLSCAASGFTFSDSYMTWIRQAPGKGLEWVSFISSSGSTIYYADSVKGRFTISRDNVKKSLYLQMNRLRAEDTAVYYCAREEPGNYVYYGMDVWGQGTTVTVSS VL: EIVVTQSPATLSLSPGERATLSCRTSQTTTSYLAWYRQKPGQAPRLLIYDASNRAAGIPARFSGSGSGTDFTLTINSLEPEDFAVYYCQLRTNWITFGQGTRLEIK	% Cytotoxicity (CDC, Daudi), 0 hour	55.8
